Tested on: Hand1-ES cells
Assay: Hand1-ES cell luciferase reporter test during myocardial differentiation
reported metric: Embryotoxicity assessment from comparing Hand1-ES ID50 with 3T3 IC50

# compound, assay result
measured = [
    ("C[C@@H]1C[C@H]2[C@@H]3CCC4=CC(=O)C=C[C@]4(C)[C@@]3(F)[C@@H](O)C[C@]2(C)[C@@]1(O)C(=O)CO", "has embryotoxicity"),
    ("O=c1[nH]cc(F)c(=O)[nH]1", "has embryotoxicity"),
    ("NC(=O)NO [hydroxyurea]", "has embryotoxicity"),
    ("O=c1[nH]c(=O)n([C@H]2C[C@H](O)[C@@H](CO)O2)cc1Br", "has embryotoxicity"),
]

---

System: balb/c 3T3 cells cloneA31
Assay: 3T3 cell proliferation test (CellTiter-Glo)
Type: cell-based
Conditions: Mus musculus, BALB/c3T3, 144 h; day 6, CellTiter-Glo luminescence; read-out: 3T3 IC50 (50% inhibitory concentration for cell growth)
Below is a list of entries, each paired with its recorded IC50 value.
Express it in µg/mL; write the number only.

# compound, assay result
measured = [
    ("O=c1[nH]cc(F)c(=O)[nH]1", 0.16),
    ("C[C@@H]1C[C@H]2[C@@H]3CCC4=CC(=O)C=C[C@]4(C)[C@@]3(F)[C@@H](O)C[C@]2(C)[C@@]1(O)C(=O)CO", 36.7),
    ("C=CC(N)=O [acrylamide]", 54),
    ("O=c1[nH]c(=O)n([C@H]2C[C@H](O)[C@@H](CO)O2)cc1Br", 0.8),
]

Input: Return reported IC50; argument: NC(=O)NO [hydroxyurea]
Output: 4.7

---

System: Hand1-ES cells
Experiment: Hand1-ES cell luciferase reporter test during myocardial differentiation
Settings: concentration at which 50% of the luciferase activity is inhibited; day 6, medium for myocardial differentiation
reported metric: Hand1-ES ID50 (50% inhibitory concentration for differentiation) (µg/mL)
# number only, unit µg/mL dropped from output

# compound, system tested, assay result
rows = [
    ("NC(=O)NO [hydroxyurea]", "Hand1-ES cells", 2.5),
    ("C[C@@H]1C[C@H]2[C@@H]3CCC4=CC(=O)C=C[C@]4(C)[C@@]3(F)[C@@H](O)C[C@]2(C)[C@@]1(O)C(=O)CO", "Hand1-ES cells", 15.6),
    ("O=C1O[C@H]([C@@H](O)CO)C(O)=C1O", "Hand1-ES cells", 28.3),
    ("C=CC(N)=O [acrylamide]", "Hand1-ES cells", 85.3),
    ("O=c1[nH]cc(F)c(=O)[nH]1", "Hand1-ES cells", 0.02),
]

Now for another entry.
Input: Could you share which Hand1-ES ID50 (50% inhibitory concentration for differentiation) value was measured for O=c1[nH]c(=O)n([C@H]2C[C@H](O)[C@@H](CO)O2)cc1Br ?
Output: 0.12
